Target: LC3/Nicotinamide phosphoribosyltransferase (Homo sapiens) (UniProt P43490+Q9BXW4+Q9GZQ8+Q9H492)
Test: Autophagosome tethering activity at NAMPT overexpressing human A2780 cells assessed as lysosome-mediated degradation of NAMPT at 3 uM incubated for 48 hrs
Assay type: cell-based
readout-name: Activity
Include the unit after the number when you answer.

// known answers, use as guide
- Cc1ccc(C(=O)N(CCCNC(=O)CCCCCCCCCN2CCN(S(=O)(=O)c3ccc(NC(=S)NCc4cccnc4)cc3)CC2)[C@@H](c2nc3cc(Cl)ccc3c(=O)n2Cc2ccccc2)C(C)C)cc1: 92%
- Cc1ccc(C(=O)N(CCCNC(=O)CCCCCCCCCCN2CCN(S(=O)(=O)c3ccc(NC(=S)NCc4cccnc4)cc3)CC2)[C@@H](c2nc3cc(Cl)ccc3c(=O)n2Cc2ccccc2)C(C)C)cc1: 93%
- Cc1ccc(C(=O)N(CCCNC(=O)CCCCCCCCN2CCN(S(=O)(=O)c3ccc(NC(=S)NCc4cccnc4)cc3)CC2)[C@@H](c2nc3cc(Cl)ccc3c(=O)n2Cc2ccccc2)C(C)C)cc1: 91%
- Cc1ccc(C(=O)N(CCCNC(=O)CCCCCCN2CCN(S(=O)(=O)c3ccc(NC(=S)NCc4cccnc4)cc3)CC2)[C@@H](c2nc3cc(Cl)ccc3c(=O)n2Cc2ccccc2)C(C)C)cc1: 86%
- Cc1ccc(C(=O)N(CCCNC(=O)CCCCCCCN2CCN(S(=O)(=O)c3ccc(NC(=S)NCc4cccnc4)cc3)CC2)[C@@H](c2nc3cc(Cl)ccc3c(=O)n2Cc2ccccc2)C(C)C)cc1: 83%

For this compound ( Cc1ccc(C(=O)N(CCCNC(=O)CCOCCOCCOCCN2CCN(S(=O)(=O)c3ccc(NC(=S)NCc4cccnc4)cc3)CC2)[C@@H](c2nc3cc(Cl)ccc3c(=O)n2Cc2ccccc2)C(C)C)cc1 ), measured Activity is 91%

Please fill in: Activity reported for Cc1ccc(C(=O)N(CCCNC(=O)CCOCCN2CCN(S(=O)(=O)c3ccc(NC(=S)NCc4cccnc4)cc3)CC2)[C@@H](c2nc3cc(Cl)ccc3c(=O)n2Cc2ccccc2)C(C)C)cc1 = 86%

====

Target: LC3/Nicotinamide phosphoribosyltransferase (Homo sapiens) (UniProt P43490+Q9BXW4+Q9GZQ8+Q9H492)
Experiment: Autophagosome tethering activity at NAMPT overexpressing human A2780 cells assessed as lysosome-mediated degradation of NAMPT at 0.1 uM incubated for 48 hrs
Type: cell-based
// classify: if (Activity < 80%) criterion met else criterion not met

Worked set:
• Cc1ccc(C(=O)N(CCCNC(=O)CCOCCOCCOCCN2CCN(S(=O)(=O)c3ccc(NC(=S)NCc4cccnc4)cc3)CC2)[C@@H](c2nc3cc(Cl)ccc3c(=O)n2Cc2ccccc2)C(C)C)cc1 = criterion met
• Cc1ccc(C(=O)N(CCCNC(=O)CCOCCN2CCN(S(=O)(=O)c3ccc(NC(=S)NCc4cccnc4)cc3)CC2)[C@@H](c2nc3cc(Cl)ccc3c(=O)n2Cc2ccccc2)C(C)C)cc1 = criterion met
• Cc1ccc(C(=O)N(CCCNC(=O)CCCCCCCCCN2CCN(S(=O)(=O)c3ccc(NC(=S)NCc4cccnc4)cc3)CC2)[C@@H](c2nc3cc(Cl)ccc3c(=O)n2Cc2ccccc2)C(C)C)cc1 = criterion not met
• Cc1ccc(C(=O)N(CCCNC(=O)CCCCCCN2CCN(S(=O)(=O)c3ccc(NC(=S)NCc4cccnc4)cc3)CC2)[C@@H](c2nc3cc(Cl)ccc3c(=O)n2Cc2ccccc2)C(C)C)cc1 = criterion met
• Cc1ccc(C(=O)N(CCCNC(=O)CCCCCCCN2CCN(S(=O)(=O)c3ccc(NC(=S)NCc4cccnc4)cc3)CC2)[C@@H](c2nc3cc(Cl)ccc3c(=O)n2Cc2ccccc2)C(C)C)cc1 = criterion met

Item Cc1ccc(C(=O)N(CCCNC(=O)CCCCCCCCN2CCN(S(=O)(=O)c3ccc(NC(=S)NCc4cccnc4)cc3)CC2)[C@@H](c2nc3cc(Cl)ccc3c(=O)n2Cc2ccccc2)C(C)C)cc1 : Activity beneath 80%, strictly?
criterion not met

Does this compound meet the criterion Activity < 80%? Cc1ccc(C(=O)N(CCCNC(=O)CCCCCCCCCCN2CCN(S(=O)(=O)c3ccc(NC(=S)NCc4cccnc4)cc3)CC2)[C@@H](c2nc3cc(Cl)ccc3c(=O)n2Cc2ccccc2)C(C)C)cc1
criterion met
